tested on: SN12K1; assay: cells; format: functional; conditions: Homo sapiens
Active and inactive are the calls of the source.
Just give me one of these, please: 1 = active, 0 = inactive

Reference set (3 entries):
molecule	class.label
O=C(/C=C/c1ccccc1)CCN1CCOCC1	0
CCNC(=O)C(C)C1CCC2(C)C=CC(=O)C(C)=C2C1O (centres undefined)	0
O=NN(CCCl)C(=O)Nc1ccc(Cl)c(Cl)c1	0

Shifting focus to the molecule that follows.
Exam item: What classification did COc1cccc2c1[C@H]1CO[C@H]3C4C[C@H](C(=O)O)C([C@@H](C2)N13)N4C (some centres undefined) end up with in this test?
Marked response: 1

* * *

Consider the following AC50 values measured on Cytochrome P450 3A4 (Homo sapiens).
Sequence (P08684 whole entry): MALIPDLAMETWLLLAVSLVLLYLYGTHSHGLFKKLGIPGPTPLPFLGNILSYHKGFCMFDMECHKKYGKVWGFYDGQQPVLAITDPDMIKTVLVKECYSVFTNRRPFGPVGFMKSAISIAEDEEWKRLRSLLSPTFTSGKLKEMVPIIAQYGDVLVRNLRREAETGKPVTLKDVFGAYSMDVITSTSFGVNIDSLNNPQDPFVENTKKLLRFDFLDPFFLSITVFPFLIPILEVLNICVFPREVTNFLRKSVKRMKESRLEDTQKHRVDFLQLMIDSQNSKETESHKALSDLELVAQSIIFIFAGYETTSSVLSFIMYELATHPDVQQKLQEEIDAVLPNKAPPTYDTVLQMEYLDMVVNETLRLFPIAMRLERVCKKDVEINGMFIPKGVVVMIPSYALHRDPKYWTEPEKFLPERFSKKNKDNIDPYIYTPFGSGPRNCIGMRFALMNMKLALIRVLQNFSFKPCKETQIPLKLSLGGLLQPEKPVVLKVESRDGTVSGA

molecule	target.entity	AC50
COCCn1c(=O)c(-c2ccc(F)cc2)nc2cncnc21	Cytochrome P450 3A4 (Homo sapiens)	12.6 µM (inconclusive)
S[C@@H]1CCCN(Cc2ccccc2)C1	Cytochrome P450 3A4 (Homo sapiens)	3.98 µM (inconclusive)
CO[C@H]1COC(=O)C/C=C\[C@@H](C)COC(=O)[C@@H](OCc2ccccc2)/C=C\[C@@H]1C	Cytochrome P450 3A4 (Homo sapiens)	3.98 µM (inconclusive)

Field: AC50. Fill in for each record below.
1. COc1ccc2c(c1O)-c1cccc3c1[C@H](C2)N(C)CC3
2. COC(=O)CC[C@@H](C)[C@H]1CC[C@H]2[C@H]3CC[C@H]4C[C@@H]5CC[C@@]4(C)C3(O5)[C@@H](Br)[C@@H](Br)[C@@]12C

Marked response:
1: 15.8 µM (inconclusive); 2: 3.98 µM (inconclusive)

Field: AC50. Fill in for each record below.
1. Cn1c(=O)c(-c2ccc(F)cc2)nc2cncnc21
2. CCC(=O)NC(=S)N1CCN(c2ccc([N+](=O)[O-])cc2Cl)CC1
3. CC(C)c1ccc(CN(C(=O)C2COc3ccccc3O2)C2CCS(=O)(=O)C2)cc1 (stereo unspecified)
4. C[C@@H]1CC[C@H]2C(=O)NC[C@@H](O)CN2[C@@H]1c1ccc(Br)cc1

Marked response:
["7.94 µM (inconclusive)", "28.2 µM (inconclusive)", "28.2 µM (inconclusive)", "3.98 µM (inconclusive)"]

Field: AC50. Fill in for each record below.
1. COc1ccc(C2N(c3ccccn3)C(=O)C3CCCN32)c(OC)c1 (stereo unspecified)
2. CC(=O)N1CCC2(CCCN(c3cccc(-c4ccccc4)c3)C2)CC1
3. CCSc1ccc2c(c1)N(CCCN1CCN(C)CC1)c1ccccc1S2
4. Cc1cc(C)c(C#N)c(OCC(=O)c2ccc(Br)cc2)n1
5. O=c1cnc2cnc(N3CCOCC3)nc2n1CCc1ccccc1
6. Cc1nc(N2CCOCC2)nc(N2CCN(c3ccccc3)CC2)c1[N+](=O)[O-]
7. FC(F)(F)c1ccccc1-c1nccc(NCc2ccccc2)n1

Marked response:
1: 22.4 µM (inconclusive); 2: 7.94 µM (inconclusive); 3: 10 µM (inconclusive); 4: 3.55 µM (inconclusive); 5: 15.8 µM (inconclusive); 6: 3.55 µM (inconclusive); 7: 31.6 µM (inconclusive)

Field: AC50. Fill in for each record below.
1. CC(=O)c1cc(C)ccc1OC(=O)CCN1C(=O)C2C3c4ccccc4C(c4ccccc43)C2C1=O (stereo unspecified)
2. O=C(Nc1ccc(-c2nc3ccccc3o2)cc1)c1ccc(N2CCOCC2)c([N+](=O)[O-])c1
3. CCCC[C@@H]1C[C@H]1C(NC(=O)c1cccnc1)c1ccc(-c2ccccc2)cc1 (stereo partly specified)
4. Cc1ccc([N+](=O)[O-])cc1/N=C(/c1cccc([N+](=O)[O-])c1)N1CCOCC1
5. Cc1ccc(-n2c(SCc3ccc([N+](=O)[O-])cc3)nc3ccccc3c2=O)cc1

Marked response:
1: 31.6 µM (inconclusive); 2: 11.2 µM (inconclusive); 3: 0.794 µM (inconclusive); 4: 20 µM (inconclusive); 5: 11.2 µM (inconclusive)

Origin of the recorded values: ChEMBL document CHEMBL1201862
